# System: CEM cells HIV-1 protection, formazan growth assay
# procedureDetails: NCI AIDS Antiviral Assay
# testContext: measured here: growth of uninfected CEM cells
Entries and their IC50

compound	targetOrTestSystem	valueRelationSign	IC50, µM
OCCN1CCN(C2=Nc3cccnc3Nc3cscc32)CC1	CEM cells HIV-1 protection, formazan growth assay	>	200
CN(NC(=O)/C(=C/c1ccc(O)cc1)NC(=O)c1ccccc1)c1ccnc2cc(Cl)ccc12	CEM cells HIV-1 protection, formazan growth assay	=	10.2
COC(=O)C1CCCN1C(=O)C(Cc1cn(S(=O)(=O)c2ccc(C)cc2)cn1)NC(=O)OC(C)(C)C (configuration not stated)	CEM cells HIV-1 protection, formazan growth assay	>	200
NC(=O)c1coc(C2OC(CO)C(O)C2O)n1 (configuration not stated)	CEM cells HIV-1 protection, formazan growth assay	>	1020
COc1ccc(-n2cnc3c2NC(C)(C)N=C3C(N)=O)c(OC)c1	CEM cells HIV-1 protection, formazan growth assay	>	200
COC(=O)Cc1ccc2c(cnn2-c2ccccc2)c1OC	CEM cells HIV-1 protection, formazan growth assay	=	89.1
CCOP(=O)(OCC)OC1CC(n2cc(C)c(=O)n(C)c2=O)OC1CO[Si](C)(C)C(C)(C)C (configuration not stated)	CEM cells HIV-1 protection, formazan growth assay	=	107
CCN(CC)C(=O)N[C@@H](Cc1ccccc1)C(=O)NC	CEM cells HIV-1 protection, formazan growth assay	>	200
CCOC(=O)C1(Cc2ccccc2)SCCCS1	CEM cells HIV-1 protection, formazan growth assay	>	91.2
C=CC[C@@]12CC(C=CC13OCCO3)OC(O)[C@@H]2C (some centres not stated)	CEM cells HIV-1 protection, formazan growth assay	=	145
CN1C(=O)N(C)C(N2CCCC2)c2c1nc1ccccn1c2=O (configuration not stated)	CEM cells HIV-1 protection, formazan growth assay	=	66.1
N#CC(c1ccccc1)N(CCOCCOCCN(C(=O)c1cccc2ccccc12)C(C#N)c1ccccc1)C(=O)c1cccc2ccccc12 (configuration not stated)	CEM cells HIV-1 protection, formazan growth assay	=	13.2
CC(=O)Oc1ccc(-c2oc3c([C@H]4C=C(C)CC(c5ccc(OC(C)=O)cc5OC(C)=O)[C@@H]4C(=O)c4ccc(OC(C)=O)c(CC=C(C)C)c4OC(C)=O)c(OC(C)=O)cc(O)c3c(=O)c2CC=C(C)C)c(OC(C)=O)c1 (some centres not stated)	CEM cells HIV-1 protection, formazan growth assay	=	7.41
Nc1ccc(N=Nc2ccccc2)c(N)n1	CEM cells HIV-1 protection, formazan growth assay	=	32.4
CCOC(=O)c1c(NC(=O)Nc2ccccc2)c(C(N)=O)c2n1CCCCC2	CEM cells HIV-1 protection, formazan growth assay	>	100
CC(C)=C1C2CCC1C(CO)C2CO (configuration not stated)	CEM cells HIV-1 protection, formazan growth assay	>	457
CCOC(=O)c1sc(C(=O)O)cc1-c1cccs1	CEM cells HIV-1 protection, formazan growth assay	=	501
CC(=O)NC(CCCN(Cc1ccccc1)C(=O)NCCCl)C(=O)NCc1ccccc1 (configuration not stated)	CEM cells HIV-1 protection, formazan growth assay	=	347
C1C[S+]2CC[S+]1CC2	CEM cells HIV-1 protection, formazan growth assay	>	200
Cc1cccc(N2CC3CC4C=CC3(C2)O4)c1 (configuration not stated)	CEM cells HIV-1 protection, formazan growth assay	>	200
COc1cc2c(cc1OC)C(=O)/C(=C/c1ccccc1)C2	CEM cells HIV-1 protection, formazan growth assay	=	151
Cn1c(O)c(/C=N/c2ncccn2)c(=O)[nH]c1=O	CEM cells HIV-1 protection, formazan growth assay	>	200

----------
# Test system: CEM cells HIV-1 protection, formazan growth assay
# procedureDetails: NCI AIDS Antiviral Assay
# testContext: measured here: growth of uninfected CEM cells
assayMetric: IC50 (µM)

> print(dat)
                                   compound  assaymetric  valuerelationsign  result
1                   OCC1(CO)CCCC(CO)(CO)C1O         IC50                  >     200
2                c1ccc(-c2csc3[n+]2CCN3)cc1         IC50                  =     126
3  CC1(C)C(=O)CC[C@@]2(C)C1CC[C@]1(C)C2CC=C2[C@@H]3C[C@](C)(C(=O)O)CC[C@]3(C)CCC21C (stereo not given in full)         IC50                  =    95.5
4            N#CCCn1[nH]c(=O)c(Cl)c(Cl)c1=O         IC50                  =    5.62
5  CCOC(=O)C1(C#N)C(c2ccccc2)CC(O)(c2ccc(OC)cc2)C(C(=O)c2ccc(OC)cc2)C1c1ccccc1 (stereo not given)         IC50                  >    12.3

----------
Entries and their pIC50
# Test system: CEM cells HIV-1 protection, formazan growth assay
# procedureDetails: NCI AIDS Antiviral Assay
# testContext: measured here: growth of uninfected CEM cells
# Protocol: The ability of compounds to protect human CEM cells from HIV-1 infection is measured as a screen for new compounds capable of inhibiting the HIV virus. Five concentrations of drug were tested on uninfected and infected cells and cell growth was measured using a soluble formazan assay. […] Compounds that provided at least 50% protection were retested. Compounds that provided at least 50% protection on retest were listed as moderately active. […]
pIC50: −log10 of the molar value.
assayMetric: pIC50

> print(dat)
                                    molecule  assaymetric  valuerelationsign  result
 1          COc1c(O)ccc2oc3cccc(O)c3c(=O)c12        pIC50                  =    3.96
 2  N#CC(NCc1cccc(CNC(C#N)c2ccccc2)c1)c1ccccc1 (stereo unspecified)        pIC50                  =    4.05
 3  CC(=O)C1C(=O)C(=O)N(c2ccc(Cl)cc2C)C1=O (stereo unspecified)        pIC50                  <    4.03
 4  COC(=O)C1CCC(=S)N1C(C)=O (stereo unspecified)        pIC50                  <    3.70
 5  COc1cc2c[n+](C)c3c(c2cc1OC)Cc1cc2c(cc1-3)OCO2        pIC50                  <    4.71
 6           CC(=Nc1c2ccccc2nc2ccccc12)N(C)C        pIC50                  =    4.55
 7  O=c1[nH]c(Nc2cccc(CC(F)(F)F)c2)nc2nc[nH]c12        pIC50                  =    3.96
 8  COc1ccc(C2=C(OC(C)=O)c3cccn3-c3ccccc3S2)cc1        pIC50                  =    5.88
 9  COc1ccc(/C=C2\C(=O)N(NC(C)=O)c3ccccc32)cc1        pIC50                  =    4.28
10  CC(=O)N1C(=O)CC(c2ccccc2)Sc2ccccc21 (stereo unspecified)        pIC50                  <    3.82
11  c1cc2cc(c1)CN1CCNCCN(CCNCC1)Cc1cccc(c1)CN1CCNCCN(CCNCC1)C2        pIC50                  <    4.30

----------
# Test system: CEM cells HIV-1 protection, formazan growth assay
# procedureDetails: NCI AIDS Antiviral Assay;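 active = compounds giving half or more protection of infected cells from virus-caused growth loss, again on retest; inactive = the rest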
Classes used: active, inactive

compound	class
CC(C)(C)O/N=C/c1cc(NC(=S)c2ccccc2)ccc1Cl	active
O=C(NP(=O)(N1CC1)N1CC1)c1cc(I)ccc1I	inactive
CCOC(=O)C(Cc1cn(S(=O)(=O)c2ccc(C)cc2)cn1)P(=O)(OCC)OCC (centres undefined)	inactive
CCCCCCCCCCCCCCCCCCNC(=S)/N=C\C(C(=O)Nc1ccccc1C)=C(/C)O	inactive
Cc1cn(C2C[C@@H](/[N+]([O-])=C\c3ccccc3)C(CO[Si](C)(C)C(C)(C)C)O2)c(=O)[nH]c1=O (some centres undefined)	inactive
COC1C=COC2(C)Oc3c(C)c(O)c4c(O)c(c(C5SCCS5)c(O)c4c3C2=O)NC(=O)/C(C)=C\C=CC(C)C(O)C(C)C(O)C(C)C(OC(C)=O)C1C (centres undefined)	inactive
C/C(=N\NC(=S)N1CCC1)c1ccccn1	inactive
COc1ccc(CCn2cnn3c(=O)c4ccccc4nc3c2=O)cc1OC	inactive
COc1cc2c(c(OC)c1OC)-c1ccc(SC)c(=O)cc1C(NC(=O)c1ccccc1)CC2 (centres undefined)	inactive

----------
# System: CEM cells HIV-1 protection, formazan growth assay
# procedureDetails: NCI AIDS Antiviral Assay
# testContext: measured here: growth of uninfected CEM cells
assayMetric: IC50 (µM)

> print(dat)
                                    compound  valuerelationsign  result
 1  COc1cc(C)cc(C(=O)OCc2ccccc2)c1C1=C(Cl)C(=O)C(Cl)=CC1=O                  =    8.51
 2  CC(=O)OC12CCCC(=O)C1C1CC/C=C\CCC12 (stereo unspecified)                  =     105
 3  COc1cc2c(c3c1[C@@H](O)[C@@H](C)[C@@H](C)O3)C=CC(C)(C)O2                  =    75.9
 4          CC(/C=N/NC1=NCCCN1)=N\NC1=NCCCN1                  >     200
 5  COc1ccc(C(C(N)=O)N2CCOCC2)cc1 (stereo unspecified)                  >     200
 6            Clc1c(C(Cl)(Cl)Cl)nsc1N1CCCCC1                  =    72.4
 7  CC(C)=CCC/C(C)=C/CC/C(C)=C/Cc1c[nH]c2ccccc12                  >    6.17
 8                    O=S1c2ccccc2-c2ccccc21                  >     447
 9  Cc1cc(Br)cc(C)c1NC(=O)C(=O)Nn1c(=S)[nH]c2ccccc2c1=O                  >     209
10  Cc1ccc2nnc(NS(=O)(=O)c3cc(C)c(Cl)cc3S)n2n1                  >     200
11  NC(=O)CNC(=O)c1ccccc1SC(=O)CCCCC[n+]1ccccc1                  =      38

Data credit: PubChem BioAssay AID179
